Molecular target: Csm2 (wild type);Psy3 (wild type) (Saccharomyces cerevisiae;Saccharomyces cerevisiae) (UniProt P40465+Q12318)
Sequence 1: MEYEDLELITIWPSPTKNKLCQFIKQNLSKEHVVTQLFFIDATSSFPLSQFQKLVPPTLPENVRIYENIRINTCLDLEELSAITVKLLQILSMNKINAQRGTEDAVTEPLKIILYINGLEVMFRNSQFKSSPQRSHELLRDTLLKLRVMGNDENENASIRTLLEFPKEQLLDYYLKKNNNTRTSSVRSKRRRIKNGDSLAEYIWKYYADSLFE
Sequence 2: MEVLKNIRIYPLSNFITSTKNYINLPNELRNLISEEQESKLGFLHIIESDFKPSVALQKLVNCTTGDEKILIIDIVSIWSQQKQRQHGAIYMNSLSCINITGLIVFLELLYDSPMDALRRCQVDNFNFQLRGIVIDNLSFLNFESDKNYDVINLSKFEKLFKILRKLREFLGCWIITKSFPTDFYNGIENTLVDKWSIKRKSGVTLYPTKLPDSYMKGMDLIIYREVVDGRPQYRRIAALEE
Test: fluorescence anisotropy
Conditions: heparin preparation; text gives 71; N21 of strand 1 = THF abasic analog (ssDNA at ss/ds junction); Anisotropy: 20 mM Tris pH 8.0, 20-25 nM DNA (2.5-5 nM in Fig 4d), protein titrated from 1 M NaCl stock; EMSA: 25 mM Tris-HCl pH 8.0, 50 mM NaCl, 1 mM DTT …
readout name: Kd

Kindly note the recorded Kd for CAGTGCCGAAGCTTGTCAAGNTTTTTTTTTTTTTTTTTTT / TTTTTTTTTTTTTTTTTTTTCTTGACAAGCTTGCGCACTG [AP6 double-flap] , which is 72 nM

---

Target: Csm2 (wild type);Psy3 (wild type) (Saccharomyces cerevisiae;Saccharomyces cerevisiae) (UniProt P40465+Q12318)
Sequence 1: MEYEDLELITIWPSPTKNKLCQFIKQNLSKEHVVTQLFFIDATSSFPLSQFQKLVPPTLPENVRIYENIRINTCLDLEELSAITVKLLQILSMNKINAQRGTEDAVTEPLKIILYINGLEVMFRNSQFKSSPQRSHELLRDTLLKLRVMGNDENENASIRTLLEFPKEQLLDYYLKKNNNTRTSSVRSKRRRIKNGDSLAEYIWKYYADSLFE
Sequence 2: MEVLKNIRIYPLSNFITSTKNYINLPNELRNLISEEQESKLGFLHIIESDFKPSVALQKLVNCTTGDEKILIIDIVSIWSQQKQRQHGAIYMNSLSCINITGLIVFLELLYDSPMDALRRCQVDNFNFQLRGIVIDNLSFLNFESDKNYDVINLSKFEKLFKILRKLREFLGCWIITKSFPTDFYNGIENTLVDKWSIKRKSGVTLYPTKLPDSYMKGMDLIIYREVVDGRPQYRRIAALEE
Experiment: fluorescence anisotropy
Details: heparin preparation; N21 of strand 1 = THF abasic analog; Anisotropy: 20 mM Tris pH 8.0, 20-25 nM DNA (2.5-5 nM in Fig 4d), protein titrated from 1 M NaCl …; EMSA: 25 mM Tris-HCl pH 8.0, 50 mM NaCl, 1 mM DTT, 100 u
readout name: pKd
Keep in mind that pKd stands for -log10 of concentration in molar terms.

For TTTTTTTTTTTTTTTTTTTTNTTGACAAGCTTGCGCACTG / CAGTGCGCAAGCTTGTCAAGTTTTTTTTTTTTTTTTTTTT [AP3 double-flap] the sequence record lists pKd as 6.98
